Test: photoluminescence quantum yield (fraction); solvent given as SMILES
Details: in CO
ENDPOINT_LABEL: photoluminescence quantum yield
Lab note: record just the number, no unit beside it.

CC(C)(C)c1ccc2ccc3c(C(C)(C)C)ccc4ccc1c2c43
0.54

Let us move to another entry and its photoluminescence quantum yield.
Exam item: # get_value(readout='photoluminescence quantum yield', item= CCC1=C(C)C(=O)n2c1cc1c(C)c(CC)c(C)n1c2=O )
Marked response: 0.93

====

Experiment: photoluminescence quantum yield (fraction); solvent given as SMILES
Conditions: in ClCCl
Dear colleague, classification is by photoluminescence quantum yield, with ranges listed here: low (below 0.1), intermediate (0.1 to below 0.5), high (0.5 or more)

O=C(c1sc(-c2ccc(-c3cc(-c4cccs4)c(C(=O)N4CCOCC4)s3)s2)cc1-c1cccs1)N1CCOCC1
intermediate
CCCn1c2cccc3oc4cccc5c4[c+](c32)c2c1cccc2n5CCC
intermediate
CN(C)c1ccc(C#Cc2cc(C#Cc3ccc(C(F)(F)F)cc3)c3ccc4c(C#Cc5ccc(C(F)(F)F)cc5)cc(C#Cc5ccc(N(C)C)cc5)c5ccc2c3c54)cc1
intermediate
COc1cc(N(c2ccccc2)c2ccc(C=C(C#N)C#N)c(OC)c2)ccc1C=C(C#N)C#N
low
Cc1ccc([C@@H]2C[C@](O)(c3ccccn3)C[C@](O)(c3ccccn3)[C@H]2C(=O)c2ccc(N(c3ccccc3)c3ccccc3)cc2)cc1
intermediate
C=CCNc1ccc2ccc3oc4cc(=O)ccc-4nc3c2c1
low
N#Cc1ccc(C2=Cc3cc4ccccc4cc3P2(=O)c2ccccc2)cc1 (centres undefined)
high
COC(=O)c1cc(=O)n(C)c2cc(-c3ccc(OC)cc3)sc12
high

Switching to the query record.
Exam item: Sort into band: C=CCNc1ccc2ccc3oc4cc(=[N+]5CCCC5)ccc-4nc3c2c1
Marked response: intermediate

====

Assay: photoluminescence quantum yield (fraction); solvent given as SMILES
Conditions: in CC#N
Response field label: string, one of met (photoluminescence quantum yield strictly below 0.2) or not met.

Below are worked cases with known answers.
C[Si](C)(C)[Si](C)(C)c1ccc2cc3ccccc3cc2c1
met
CN(C)c1nc(N)c2nc(C#N)n(Cc3ccccc3)c2n1
not met
CC(C)(C)c1ccc(-c2c3ccccc3c3n2[B-](F)(F)[N+]2=Cc4c5ccccc5c(-c5ccc(C(C)(C)C)cc5)n4[B-](F)(F)[N+]2=C3)cc1
not met
Cc1ccc(C)n1-c1ccc(N(C)C)cc1
not met
Cc1ccc(-c2ccc(/C=C/c3ccc(Br)n3C)cn2)nc1
met

Exam item: Could you please tell me whether photoluminescence quantum yield recorded for CC(C)Oc1ccc(C#Cc2cc3ccccc3oc2=O)cc1 is less than 0.2?
Marked response: not met

Exam item: Could you please tell me whether photoluminescence quantum yield recorded for NS(=O)(=O)c1ccc(N2N=C(c3ccc(O)cc3)CC2c2ccc([N+](=O)[O-])cc2)cc1 (stereo not given) is less than 0.2?
Marked response: met

Exam item: Could you please tell me whether photoluminescence quantum yield recorded for CN(C)c1ccc(-c2nc3c(c4c2-c2ccccc2CC4)-c2ccccc2CC3)cc1 is less than 0.2?
Marked response: met

Exam item: Could you please tell me whether photoluminescence quantum yield recorded for c1cc2ccc1CCCc1ccc(c3nsnc13)CCC2 is less than 0.2?
Marked response: met

Exam item: Could you please tell me whether photoluminescence quantum yield recorded for COc1cc(N(c2ccccc2)c2ccc(C=C(C#N)C#N)c(OC)c2)ccc1C=C(C#N)C#N is less than 0.2?
Marked response: met

====

Assay: photoluminescence quantum yield (fraction); solvent given as SMILES
Conditions: in c1cc(-n2c3ccccc3c3ccccc32)cc(-n2c3ccccc3c3ccccc32)c1
ENDPOINT_LABEL: photoluminescence quantum yield
Lab note: record just the number, no unit beside it.

Solved cases (2 shown):
CC(C)(C)c1ccc2c(c1)c1cc(C(C)(C)C)ccc1n2-c1ccc(-n2c3ccc(C(C)(C)C)cc3c3cc(C(C)(C)C)ccc32)c(-c2nccnc2C#N)c1
0.44
O=c1c2ccccc2n2c3ccc(-c4ccccc4)cc3c(=O)c3cccc1c32
0.73

Exam item: # get_value(readout='photoluminescence quantum yield', item= N#Cc1cc(-n2c3ccccc3c3cccnc32)c(-n2c3ccccc3c3cccnc32)cc1C#N )
Marked response: 0.37

Exam item: # get_value(readout='photoluminescence quantum yield', item= c1ccc(N(c2ccccc2)c2ccc(-c3ccc4c(c3)C3(c5ccccc5Oc5ccccc53)c3cc(-c5ccc(N(c6ccccc6)c6ccccc6)cc5)ccc3-4)cc2)cc1 )
Marked response: 0.9

Exam item: # get_value(readout='photoluminescence quantum yield', item= CC1(C)c2ccccc2N(c2cccc(S(=O)(=O)c3cccc(N4c5ccccc5C(C)(C)c5ccccc54)c3)c2)c2ccccc21 )
Marked response: 0.365

Exam item: # get_value(readout='photoluminescence quantum yield', item= c1ccc(-c2nnc(-c3ccccc3)n2-c2ccc(N3c4ccccc4N(c4ccccc4)c4ccccc43)cc2)cc1 )
Marked response: 0.12

Exam item: # get_value(readout='photoluminescence quantum yield', item= CC1(C)c2ccccc2N(c2ccc(S(=O)(=O)c3ccc(N4c5ccccc5C(C)(C)c5ccccc54)cc3)cc2)c2ccccc21 )
Marked response: 0.8

====

Test: photoluminescence quantum yield (fraction); solvent given as SMILES
Settings: in CCO
Reported photoluminescence quantum yield values follow for various molecules
Lab note: record just the number, no unit beside it.

Solved cases (6 shown):
Nc1ccccc1C(=O)O
0.59
O=Cc1ccc(-c2ccc(O)c(-c3nc4ccccc4s3)c2)o1
0.0246
C[N+]1=C(/C=C/C2=C3Oc4c(cc5c6c4CCCN6CCC5)C(c4ccccc4C(=O)O)=C3CCC2)C(C)(C)c2c1ccc1ccccc21
0.29
CN(C)c1ccc(/C=C/C=C/c2ccc(C#N)cc2)cc1
0.187
CC(C)[Si]1(C(C)C)c2cc(C#N)ccc2-c2ccc(N(c3ccccc3)c3ccccc3)cc21
0.72
CCNc1cc2c(cc1C)C(c1ccccc1C(=O)O)=C1CCCC(/C=C/C3=[N+](C)c4ccc5ccccc5c4C3(C)C)=C1O2
0.34

Exam item: # get_value(readout='photoluminescence quantum yield', item= Oc1c(-c2cccs2)cccc1-c1nc2ccccc2s1 )
Marked response: 0.0075

Exam item: # get_value(readout='photoluminescence quantum yield', item= O=C(O)CCNc1cccc2ccccc12 )
Marked response: 0.54

Exam item: # get_value(readout='photoluminescence quantum yield', item= CCNc1cc2c(cc1C)C(c1ccccc1C(=O)O)=C1CCCC(/C=C/C3=[N+](C)c4ccccc4C3(C)C)=C1O2 )
Marked response: 0.56

Exam item: # get_value(readout='photoluminescence quantum yield', item= O=C(O)c1ccc2ccc3cccc4ccc1c2c34 )
Marked response: 0.038

Exam item: # get_value(readout='photoluminescence quantum yield', item= COc1ccc2c(c1)-c1cc(OC)ccc1C2=O )
Marked response: 0.002

Exam item: # get_value(readout='photoluminescence quantum yield', item= CNc1ccc2c(c1)-c1ccccc1C2=O )
Marked response: 0.0065

Exam item: # get_value(readout='photoluminescence quantum yield', item= C=CCNc1ccc2ccc3oc4cc(=[N+]5CCCC5)ccc-4nc3c2c1 )
Marked response: 0.04

Exam item: # get_value(readout='photoluminescence quantum yield', item= CCN1C(=CC=Cc2n(CC)c3cc(Cl)c(Cl)cc3[n+]2CC)N(CC)c2cc(Cl)c(Cl)cc21 )
Marked response: 0.023

====

Reported photoluminescence quantum yield values follow for various compounds
Assay: photoluminescence quantum yield (fraction); solvent given as SMILES
Conditions: in CS(C)=O
Lab note: record just the number, no unit beside it.

Solved cases (5 shown):
CCCCCCCCC1(CCCCCCCC)c2cc(C=O)ccc2-c2ccc(/C=C/c3ccc(N(c4ccccc4)c4ccccc4)cc3)cc21
0.2
CC(=O)c1c2c(cc3cc(N(C)C)ccc13)CCC2
0.37
CN(C)c1ccc(C#Cc2ccc(C=O)cc2)cc1
0.037
C(=C\c1nc2ccccc2[nH]1)/c1ccc(/C=C/c2nc3ccccc3[nH]2)cc1
0.63
Cc1ccc(-c2ccc(/C=C/c3cccn3C)cn2)nc1
0.19

Exam item: # get_value(readout='photoluminescence quantum yield', item= CC(C)[Si]1(C(C)C)c2cc(C#N)ccc2-c2ccc(N(c3ccccc3)c3ccccc3)cc21 )
Marked response: 0.81

Exam item: # get_value(readout='photoluminescence quantum yield', item= [C-]#[N+]c1ccc(-c2ccc(N)cc2)cc1 )
Marked response: 0.77

Exam item: # get_value(readout='photoluminescence quantum yield', item= CCOC(=O)/C(C#N)=C\c1ccc2c(c1)c1ccccc1n2-c1ccc(C)cc1 )
Marked response: 0.04

====

Experiment: photoluminescence quantum yield (fraction); solvent given as SMILES
Conditions: in ClCCl
Kind request: treat 0.3 as inclusive, so photoluminescence quantum yield at 0.3 or higher is T, anything lower is F.

Below are worked cases with known answers.
COc1cc(OC)cc(C2=C3C(C)=C(I)C(/C=C/c4c[nH]c5ccccc45)=[N+]3[B-](F)(F)n3c(/C=C/c4c[nH]c5ccccc45)c(I)c(C)c32)c1
F
CC(C)(C)NC(=O)c1ccc(-c2cc3ccccc3s2)c2ccc3c4ccccc4c4ccccc4c3c12
F
Cc1ccc2c(c1)C(=O)c1ccncc1-2
F
CC1=[N+]2C(=c3c4c5ccccc5cc5cccc(c6cc(C)n(c36)[B-]2(F)F)c54)C=C1
T
CC(=O)c1c(N[C@H](C(=O)O)C(C)C)c2ccc(N(C)C)cc2oc1=O
F

Exam item: Dear colleague, could you confirm whether COC(=O)c1cc(=O)n(Cc2ccccc2)c2cc(-c3ccc(N(C)C)cc3)sc12 has photoluminescence quantum yield at or above 0.3?
Marked response: T

Exam item: Dear colleague, could you confirm whether CN(C)c1ccc(/C=C/c2ccc(-c3cc(-c4ccccn4)nc(-c4ccccn4)c3)cc2)cc1 has photoluminescence quantum yield at or above 0.3?
Marked response: T

Exam item: Dear colleague, could you confirm whether CCOC(=O)c1sc(-c2ccc(-c3cc(C4CC4)c(C(=O)OCC)s3)s2)cc1C1CC1 has photoluminescence quantum yield at or above 0.3?
Marked response: F

Exam item: Dear colleague, could you confirm whether CC(C)(C)c1ccc(-c2c3ccccc3c3n2[B-](F)(F)[N+]2=Cc4c5ccccc5c(-c5ccc(C(C)(C)C)cc5)n4[B-](F)(F)[N+]2=C3)cc1 has photoluminescence quantum yield at or above 0.3?
Marked response: T

Exam item: Dear colleague, could you confirm whether CN(C)c1ccc2c3c(c(=O)oc2c1)C=c1cc2c(cc1O3)=[N+](CCC(=O)O)CCC2 has photoluminescence quantum yield at or above 0.3?
Marked response: T
